System: CAMK2D
Details: concentration: 1 μM, replicates: in singlicate; n = 1;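 further: KINOMEscan kinase panel screen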
Field: %Inh. Provide a value for each of the compounds that follow.
Numbers only, in %.

Give one value of %Inh per listed compound.
1. COc1cccc(-n2cnc3c(N)ncnc32)c1
2. Nc1n[nH]c2nnc(-c3ccccc3)c(-c3ccccc3)c12
3. COc1ccc(-n2cnc3c(N)ncnc32)cc1
4. COc1cc2ncn(-c3cc(OCc4ccncc4Br)c(C(N)=O)s3)c2cc1OC

Reply |
1: 12; 2: 0; 3: 0; 4: 17

Hi team, please reply with %Inh for each item in this list.
1. Cl.NS(=O)(=O)c1cccc(Nc2cc(-c3ccc(F)cc3)n[nH]2)c1
2. Nc1ncnc2c1ncn2-c1cccc2ccccc12
3. OCCCNc1nccc(-c2c(-c3cccc(C(F)(F)F)c3)nn3cc(C(F)(F)F)ccc23)n1
4. Nc1nc(N)c2nc(-c3ccccc3)[nH]c2n1

Reply |
[0, 0, 22, 0]

Batch: %Inh for all items listed.
1. CC(C)(C)c1ccc(C(=O)Nc2cn3cc(-c4ccccc4)ccc3n2)cc1
2. COc1ccc(Nc2nccc(N3CCC(NS(=O)(=O)c4ccc(NC(C)=O)cc4)C3)n2)cc1 (stereo not shown)
3. Fc1cccc(CSc2nnc(-c3ccc4c(c3)CCO4)o2)c1

Reply |
1. 0
2. 0
3. 0

###

For each record, write down the corresponding %Inh.
Test system: CSNK1A1L
Settings: concentration: 1 μM, replicates: in singlicate; n = 1
Give bare numbers, in %.

[[record]]
molecule = "C[C@@H]1CC[C@H](C(=O)NC2CCCCC2)CN1c1cc(-c2ccc3c(N)n[nH]c3c2)nc(N)n1 [GSK2291363]"
measured_number = 12

[[record]]
molecule = "Nc1ncnc2c1ncn2-c1ccc(Cl)cc1 [AH2635]"
measured_number = 12

[[record]]
molecule = "COc1cc2ncn(-c3cc(OCc4ccc(S(C)(=O)=O)cc4)c(C(N)=O)s3)c2cc1OC [GW869979]"
measured_number = 0

[[record]]
molecule = "COc1cc2nccc(Nc3cccc(Oc4ccccc4)c3)c2cc1OC.Cl [GW284543]"
measured_number = 12

[[record]]
molecule = "O=C(Nc1n[nH]c2nc(-c3ccccc3)c(Br)cc12)C1CC1 [SB-708998]"
measured_number = 0

[[record]]
molecule = "CCn1c(-c2nonc2N)nc2ccccc21 [SB-693162/GW549034]"
measured_number = 0

[[record]]
molecule = "CCS(=O)(=O)c1ccc(OC)c(Nc2ncc(-c3ccc(F)cc3)o2)c1.Cl [GW591947]"
measured_number = 0

[[record]]
molecule = "CCCC(=O)Nc1n[nH]c2ncc(-c3cccc4ccccc34)cc12 [SB-642057]"
measured_number = 2


Please look at the following molecule next.
Ask | What measured %Inh goes with OCCCNc1nccc(-c2c(-c3cccc(C(F)(F)F)c3)nn3cc(C(F)(F)F)ccc23)n1 [GW630813] ?
Reply | 0

###

System: DAPK1
Conditions: concentration: 1 μM, replicates: in singlicate; n = 1
REPORTED_ENDPOINT: %Inh (%)
Answers are plain numbers, in %.

# example entries with known answers
[[record]]
compound = "CCC(=O)c1c(-c2ccccc2)c2cc(Cl)ccc2c(=O)n1Cc1cc(S(C)(=O)=O)n(CCC(C)(C)O)n1"
reported_endpoint = "%Inh"
unit_symbol = "%"
measured_number = 16

[[record]]
compound = "COc1ccc(-c2coc3ccc(-c4nnc(SCc5cccc(C#N)c5)o4)cc23)cc1"
reported_endpoint = "%Inh"
unit_symbol = "%"
measured_number = 29

[[record]]
compound = "Cc1nnc(-c2ccc3ncn(-c4ccc(S(C)=O)cc4)c3c2)o1 (stereo not shown)"
reported_endpoint = "%Inh"
unit_symbol = "%"
measured_number = 26


Now let's try a different one.
Ask | What value of %Inh has been recorded for this entry: COc1cc(Nc2nccc(N3CCC(NC(=O)C4COc5ccccc5O4)C3)n2)cc(OC)c1OC (stereo not shown) [GSK1379761]
Reply | 0
